The reported numbers originate from ChEMBL document CHEMBL1125136.

- assay remarks: Evaluated for minimum inhibitory concentration against […] bacteria […] SV-1
- Format: functional
Measured MIC of individual entries

# compound, MIC, µg/mL
records = [
    ("CCn1cc(C(=O)O)c(=O)c2cc(F)c(N3CCC4(CCN(C)C4)C3)cc21 (centres undefined)", 0.4),
    ("O=C(O)c1cn(C2CC2)c2c(F)c(N3CCC4(CCNC4)C3)c(F)cc2c1=O (centres undefined)", 0.1),
    ("CC1COc2c(N3CCN(C)CC3)c(F)cc3c(=O)c(C(=O)O)cn1c23 (centres undefined) [OFLOXACIN]", 0.4),
    ("CCn1cc(C(=O)O)c(=O)c2c(F)c(F)c(N3CCC4(CCN(C)C4)C3)c(F)c21 (centres undefined)", 0.8),
]

###

- System: Escherichia coli
- assay remarks: Evaluated for minimum inhibitory concentration against gram-negative bacteria Escherichia coli Vogel
- Type: functional
Measured log10 MIC of individual entries
measured quantity: log10 MIC (log10 of the value in µg/mL)

# molecule, experimental value
rows = [
    ("O=C(O)c1cn(C2CC2)c2cc(N3CCNCC3)c(F)cc2c1=O", -1.60),
    ("CCN1CCC2(CCN(c3nc4c(cc3F)c(=O)c(C(=O)O)cn4CC)C2)C1 (centres undefined)", -0.40),
    ("CCn1cc(C(=O)O)c(=O)c2cc(F)c(N3CCC(N)C3)c(F)c21 (centres undefined)", -1.30),
    ("CC1COc2c(N3CCC4(CCN(C)C4)C3)c(F)c(N)c3c(=O)c(C(=O)O)cn1c23 (centres undefined)", -0.40),
    ("NC1CCN(c2c(F)cc3c(=O)c(C(=O)O)cn(C4CC4)c3c2F)C1 (centres undefined)", -1.89),
    ("CCn1cc(C(=O)O)c(=O)c2cc(F)c(N3CCC4(CCNC4)C3)nc21.Cl (centres undefined)", -0.10),
    ("CCn1cc(C(=O)O)c(=O)c2cc(F)c(N3CCC4(CCN(C)C4)C3)cc21 (centres undefined)", -0.70),
    ("CCNCC1CCN(c2c(F)cc3c(=O)c(C(=O)O)cn(CC)c3c2F)C1 (centres undefined)", -1.00),
    ("CCN1CCC2(CCN(c3c(F)cc4c(=O)c(C(=O)O)cn(CC)c4c3F)C2)C1 (centres undefined)", -0.70),
]

###

- Tested on: Enterobacter cloacae
- assay remarks: Evaluated for minimum inhibitory concentration against gram-negative bacteria Enterobacter cloacae HA 2646
- Type: functional
Measured MIC of individual entries

# molecule, test target, MIC
data = [
    ("CCNCC1CCN(c2c(F)cc3c(=O)c(C(=O)O)cn(CC)c3c2F)C1 (centres undefined)", "Enterobacter cloacae", "0.2 µg/mL"),
    ("CCn1cc(C(=O)O)c(=O)c2cc(F)c(N3CCC4(CCN(C)C4)C3)cc21 (centres undefined)", "Enterobacter cloacae", "0.2 µg/mL"),
    ("CCn1cc(C(=O)O)c(=O)c2cc(F)c(N3CCCC4(CCCNC4)C3)nc21 (centres undefined)", "Enterobacter cloacae", "25 µg/mL"),
    ("NC1CCN(c2c(F)cc3c(=O)c(C(=O)O)cn(C4CC4)c3c2F)C1 (centres undefined)", "Enterobacter cloacae", "0.025 µg/mL"),
    ("O=C(O)c1cn(C2CC2)c2c(F)c(N3CCC4(CCCN4)C3)c(F)cc2c1=O (centres undefined)", "Enterobacter cloacae", "0.025 µg/mL"),
    ("CCn1cc(C(=O)O)c(=O)c2cc(F)c(N3CCC4(CCNC4)C3)c(F)c21 (centres undefined)", "Enterobacter cloacae", "0.2 µg/mL"),
    ("CC1COc2c(N3CCC4(CCN(C)C4)C3)c(F)c(N)c3c(=O)c(C(=O)O)cn1c23 (centres undefined)", "Enterobacter cloacae", "0.4 µg/mL"),
    ("CC1COc2c(N3CCC4(CCN(C)C4)C3)c(F)cc3c(=O)c(C(=O)O)cn1c23 (centres undefined)", "Enterobacter cloacae", "0.2 µg/mL"),
    ("O=C(O)c1cn(C2CC2)c2c(F)c(N3CCC4(CCNC4)C3)c(F)cc2c1=O (centres undefined)", "Enterobacter cloacae", "0.2 µg/mL"),
    ("CCn1cc(C(=O)O)c(=O)c2cc(F)c(N3CCCC4(CCCNC4)C3)c(F)c21 (centres undefined)", "Enterobacter cloacae", "6.3 µg/mL"),
    ("CCn1cc(C(=O)O)c(=O)c2cc(F)c(N3CCC(N)C3)c(F)c21 (centres undefined)", "Enterobacter cloacae", "0.1 µg/mL"),
    ("CCn1cc(C(=O)O)c(=O)c2cc(F)c(N3CCC4(CCNC4)C3)nc21.Cl (centres undefined)", "Enterobacter cloacae", "0.8 µg/mL"),
    ("CCN1CCC2(CCN(c3c(F)cc4c(=O)c(C(=O)O)cn(CC)c4c3F)C2)C1 (centres undefined)", "Enterobacter cloacae", "0.4 µg/mL"),
    ("CCn1cc(C(=O)O)c(=O)c2cc(F)c(N3CCC4(CCCN4)C3)c(F)c21.Cl (centres undefined)", "Enterobacter cloacae", "0.2 µg/mL"),
]
